Assay: In vivo pharmacokinetic property study in male SD rats
Details: Sprague-Dawley, rat, plasma, iv 0.3 mg/kg, read-out: Vdss
measured_metric: Vd (L/kg)
Write the answer as a number in L/kg, unit excluded.

Which Vd value is on record for CO[C@@]12C(=O)Nc3nc(-c4nn(CCC(F)(F)C(F)(F)F)c5ncc(F)cc45)nc(c31)NC(=O)C2(C)C ? 2.36

meta.source: patent US20240409560A1
